- System: E. coli ATCC25922
- experimental details: Bacterial growth minimal inhibitory concentration (broth microdilution, CLSI M7-A7)
- Assay type: cell-based
- run parameters: cation-adjusted Mueller Hinton Broth, quinolone-sensitive strain
# MIC for E. coli ATCC25922 per record follows
Param answer (str): number followed by unit.

Solved entries:
C[C@@](CCn1c(=O)sc2cc(C#Cc3ccc(CO)cc3)ccc21)(C(=O)NO)S(C)(=O)=O 0.125 µg/mL
C[C@@](CCn1c(=O)oc2cc(C#Cc3ccc(CO)cc3)ccc21)(C(=O)NO)S(C)(=O)=O 0.25 µg/mL
C[C@@](CCn1c(=O)oc2cc(C#CC#CC3(CO)CC3)ccc21)(C(=O)NO)S(C)(=O)=O 0.25 µg/mL

Attention now turns to another entry.
Lookup: Look up and report measured MIC for E. coli ATCC25922 (E. coli ATCC25922) for the following compound: `C[C@@](CCn1c(=O)oc2cc(C#Cc3ccc(CN4CCOCC4)cc3)ccc21)(C(=O)NO)S(C)(=O)=O`
Found: 2 µg/mL

----------
- Tested on: P. aeruginosa ATCC27853
- experimental details: Bacterial growth minimal inhibitory concentration (broth microdilution, CLSI M7-A7)
- Format: cell-based
- run parameters: cation-adjusted Mueller Hinton Broth, quinolone-sensitive strain
measure: MIC for P. aeruginosa ATCC27853 (µg/mL)
The answer is to be given in µg/mL; state only the numeric part.

Solved entries:
compound	MIC for P. aeruginosa ATCC27853, µg/mL
C[C@@](CCn1c(=O)oc2cc(C#Cc3ccc(CO)cc3)ccc21)(C(=O)NO)S(C)(=O)=O [Example 1]	4
C[C@@](CCn1c(=O)sc2cc(C#Cc3ccc(CO)cc3)ccc21)(C(=O)NO)S(C)(=O)=O [Example 13]	8

Attention now turns to another entry.
Lookup: Tell us which MIC for P. aeruginosa ATCC27853 value is on record for C[C@@](CCn1c(=O)oc2cc(C#CC#CC3(CO)CC3)ccc21)(C(=O)NO)S(C)(=O)=O [Example 2]
Found: 1

----------
- Tested on: E. coli ATCC25922
- experimental details: Bacterial growth minimal inhibitory concentration (broth microdilution, CLSI M7-A7)
- Type: cell-based
- run parameters: Escherichia coli, ATCC25922, cation-adjusted Mueller Hinton Broth, quinolone-sensitive strain
measure: MIC (µg/mL)
The answer is to be given in µg/mL; state only the numeric part.

C[C@@](CCn1c(=O)oc2cc(C#CC#CCOC(=O)N3CC(O)C3)ccc21)(C(=O)NO)S(C)(=O)=O 0.5

Lookup: Tell us which MIC value is on record for `CNC1(C#CC#Cc2ccc3c(c2)oc(=O)n3CC[C@](C)(C(=O)NO)S(C)(=O)=O)CC1`
Found: 0.25

Lookup: Tell us which MIC value is on record for `C[C@@](CCn1c(=O)oc2cc(C#CC#C[C@H]3C[C@@H]3CO)ccc21)(C(=O)NO)S(C)(=O)=O`
Found: 0.063

----------
- Tested on: K. Pneumoniae A-651
- experimental details: Bacterial growth minimal inhibitory concentration (broth microdilution, CLSI M7-A7)
- Assay type: cell-based
- run parameters: Klebsiella pneumoniae, cation-adjusted Mueller Hinton Broth, multiply-resistant (quinolone-resistant) strain
measure: MIC
Param answer (str): number followed by unit.

compound	result
CN1CC(C#CC#Cc2ccc3c(c2)oc(=O)n3CC[C@](C)(C(=O)NO)S(C)(=O)=O)C1 [Example 9]	0.5 µg/mL

Lookup: Tell us which MIC value is on record for C[C@@](CCn1c(=O)oc2cc(C#CC#C[C@H]3C[C@@H]3CO)ccc21)(C(=O)NO)S(C)(=O)=O [Example 5]
Found: 0.125 µg/mL

Lookup: Tell us which MIC value is on record for COc1ccc(-c2ccc3c(c2)oc(=O)n3CCC(C)(C(=O)NO)S(C)(=O)=O)c(F)c1 (racemic) [RE1]
Found: 1 µg/mL
